Test: chemical genetic growth profiling, strain panel (AID 1159580);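 note: tested at 20 µM; growth read once vehicle control cultures reached saturation at 30 °C; 1 = growth at the plate median or of vehicle wells; lower values mean less growth of the strain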
Conditions: S. cerevisiae deletion strains, growth OD, locus YOR070C, strain gyp1, hits give low values
Among all 5,500 compounds or so, about 2,000 (36%) were called active. Inconclusive results (about 18%) are left out. This is one part of the list.

{"Molecule": "Cc1cc2cc3c(C)cc(=O)oc3c(C)c2o1", "normalized growth": 0.979}
{"Molecule": "CCCN1C[C@H](CSC)C[C@@H]2c3cccc4[nH]cc(c34)C[C@H]21", "normalized growth": 0.997}
{"Molecule": "CC(C)(O)[C@@H]1CC[C@](C)([C@H]2[C@@H](O)C[C@@]3(C)C4C[C@H](O[C@@H]5O[C@H](CO)[C@@H](O)[C@H](O)[C@H]5O)C5C(C)(C)[C@@H](O[C@@H]6OC[C@@H](O)[C@H](O)[C@H]6O)CC[C@@]56C[C@@]46CC[C@]23C)O1 (stereo partly specified)", "normalized growth": 1}
{"Molecule": "CC(C)(Oc1ccc(Cl)cc1)C(=O)O", "normalized growth": 1.01}
{"Molecule": "COc1ccc(-c2cc(=O)c3c(O)c(OC)c(OC)c(OC)c3o2)cc1", "normalized growth": 0.99}
{"Molecule": "C=CCCCCCCCCCCCC(O)CC(O)CO (stereo unspecified)", "normalized growth": 0.992}
{"Molecule": "ClC(Cl)=C(c1ccc(Cl)cc1)c1ccc(Cl)cc1", "normalized growth": 1}
{"Molecule": "COc1ccc2cc3[n+](cc2c1OC)CCc1cc2c(cc1-3)OCO2", "normalized growth": 0.984}
{"Molecule": "CC(=O)[C@H]1CCC2C3CC=C4C[C@@H](OC(=O)CCC(=O)O)CC[C@]4(C)C3CC[C@@]21C (stereo partly specified)", "normalized growth": 0.959}
{"Molecule": "CCn1cc(C(=O)O)c(=O)c2cc(F)c(N3CCNCC3)cc21", "normalized growth": 0.979}
{"Molecule": "CC(=O)OCC(=O)[C@@]1(O)CCC2C3CC[C@@H]4C[C@H](O)CC[C@]4(C)C3C(=O)C[C@@]21C (stereo partly specified)", "normalized growth": 1.02}
{"Molecule": "O=c1c2ccccc2oc2ccccc12", "normalized growth": 0.934}
{"Molecule": "CC(C)(C)C(=O)C(Oc1ccc(Cl)cc1)n1cncn1 (stereo unspecified)", "normalized growth": 0.0975}
{"Molecule": "O=C(O)/C=C(\\CC(=O)O)C(=O)O", "normalized growth": 0.981}
{"Molecule": "CC1=C2C(=CO[C@H](C)[C@H]2C)C(=O)C(C(=O)O)=C1O", "normalized growth": 0.974}
{"Molecule": "CCC(CCC(C)[C@H]1CCC2C3CC=C4C[C@@H](O)CC[C@]4(C)C3CC[C@@]21C)C(C)C (stereo partly specified)", "normalized growth": 1.05}
{"Molecule": "OC1C(O)C(O)C(O)C(O)C1O (stereo unspecified)", "normalized growth": 1}
{"Molecule": "COc1cc2cc[n+]3cc4c(OC)c(OC)ccc4cc3c2cc1OC", "normalized growth": 0.984}
{"Molecule": "COc1ccc(-c2cc(=O)c3c(OC)c(OC)c(OC)c(OC)c3o2)cc1", "normalized growth": 0.961}
{"Molecule": "O=c1cc(-c2cccc(O)c2)oc2ccc(O)cc12", "normalized growth": 0.964}
{"Molecule": "CCCCCCCCCCCCCCCC[n+]1ccccc1", "normalized growth": 0.0562}
{"Molecule": "COC(=O)C1=C(C)NC(C)=C(C(=O)OCC(C)C)C1c1ccccc1[N+](=O)[O-] (stereo unspecified)", "normalized growth": 0.492}
{"Molecule": "COc1ccc(-c2cc(=O)c3cc(OC)ccc3o2)cc1", "normalized growth": 0.941}
{"Molecule": "CC(=O)O[C@H]1C[C@H](O[C@H]2[C@@H](O)C[C@H](O[C@H]3[C@@H](O)C[C@H](O[C@H]4CC[C@@]5(C)C(CCC6C5C[C@@H](O)[C@]5(C)[C@@H](C7=CC(=O)OC7)CC[C@]65O)C4)O[C@@H]3C)O[C@@H]2C)O[C@H](C)[C@H]1O[C@@H]1O[C@H](CO)[C@@H](O)[C@H](O)[C@H]1O (stereo partly specified)", "normalized growth": 0.999}
{"Molecule": "COc1cc([C@@H]2c3cc4c(cc3[C@H](OC(C)=O)[C@H]3COC(=O)[C@H]23)OCO4)cc(OC)c1OC", "normalized growth": 1.01}
{"Molecule": "CC(C)c1ccc2c(c1O)CC[C@H]1C3=C(CC[C@]21C)C(=O)OC3", "normalized growth": 0.956}
{"Molecule": "CN(C)CCC=C1c2ccccc2C=Cc2ccccc21", "normalized growth": 0.966}
{"Molecule": "CCN(CC)CCNc1ccc(CO)c2sc3ccccc3c(=O)c12", "normalized growth": 1}
{"Molecule": "COC(=O)C1=C(C)NC(C)=C(C(=O)OC)C1c1ccccc1[N+](=O)[O-]", "normalized growth": 0.916}
{"Molecule": "NCC(=O)CCC(=O)O", "normalized growth": 0.989}
{"Molecule": "COc1cc2c(cc1OC)-c1cc3ccc(OC)c(OC)c3c[n+]1CC2", "normalized growth": 0.986}
{"Molecule": "O=c1cc(-c2ccc(O)cc2)oc2ccc(O)cc12", "normalized growth": 0.988}
{"Molecule": "COC(=O)C1=C(C)NC(C)=C(C(=O)OCCN(C)Cc2ccccc2)C1c1cccc([N+](=O)[O-])c1 (stereo unspecified)", "normalized growth": 0.979}
{"Molecule": "CN(N=O)C(=O)N[C@@H]1[C@@H](O)[C@H](O)[C@@H](CO)O[C@@H]1O", "normalized growth": 1.01}
{"Molecule": "N[C@@H]1CONC1=O", "normalized growth": 0.984}
{"Molecule": "O=c1c2ccccc2[se]n1-c1ccccc1", "normalized growth": 0.0603}
{"Molecule": "O=C(O)c1cc(=O)c2ccccc2o1", "normalized growth": 0.985}
{"Molecule": "CC(=O)O.CC(=O)O.[Cd]", "normalized growth": 0.669}
{"Molecule": "CCC(/C=C/[C@@H](C)[C@H]1CCC2C3CC=C4C[C@@H](O)CC[C@]4(C)C3CC[C@@]21C)C(C)C (stereo partly specified)", "normalized growth": 0.976}
{"Molecule": "CN(C)CCC=C1c2ccccc2CCc2ccccc21", "normalized growth": 0.975}
{"Molecule": "Nc1nc(N)c2nc(-c3ccccc3)c(N)nc2n1", "normalized growth": 0.991}
